# IC50 of pseudovirus infection of ACE2-CHO cells (Luciferase活性) per entry
- assayedSystem: SARS-Cov-2 spike on lentiviral pseudovirus (SARS-Cov-2, UniProt P0DTC2 14-1273)
- protocolSummary: cell-based or functional assay
// units = µg/mL; emit number, no label

1. 4D5-hFc重组蛋白 (Fc fusion) EVQLLESGGGLVQPGGSLRLSCAASSFDFSSYEMSWVRQAPGKALEWIGEIHHSGSTYYNPSLKSRVTISRDNSKNTLYLQMNSLRAEDTAMYYCVKDLGFADHWGQGTLVTVSS: 1.13
2. 4A10-hFc重组蛋白 (Fc fusion) EVQLLESGGGLVQPGGSLRLSCAASSFDFSDYEMSWVRQAPGKGLEWIGEIHHSGSTYYNPSLKSRVTISRDNSKNTLYLQMNSLRAEDTATYYCVKDFVVGETAEFSYWGQGTLVTVSS: 0.66
3. 4C5-hFc重组蛋白 (Fc fusion) EVQLLESGGGLVQPGGSLRLSCAASDFYFADYEMSWVRQAPGKGLEWIGSIYHSGSTYYNPSLKSRVTISRDNSKNTLYLQMNSLRAEDTAMYYCAREWHSGYDYWGQGTLVTVSS: 2.32

Find the measured IC50 of pseudovirus infection of ACE2-CHO cells (Luciferase活性) of 4A12-hFc重组蛋白 (Fc fusion) EVQLLESGGGLVQPGGSLRLSCAASDFAFSSYEMSWVRQAPGKGLEWIGEIHHSGSTYYNPSLKSLVTISRDNSKNTLYLQMNSLRAEDTAVYYCVKDFGHLGQMASWGQGTLVTVSS and report it.
0.19
